- protocol text: Pharmacokinetic study, IP 100 mg/kg, whole blood concentration
- Assay type: in vivo, male CD1 mice
- test context: male, CD1, mouse, ip, 100 mg/kg, read-out: AUCINF Mean
endpoint name: AUC(0-inf)
Write the numeric value and follow it with the unit.

Provide only the value of recorded AUC(0-inf) for CC(C)N(C[C@H]1C[C@@H](n2cc(C#N)c3c(N)ncnc32)[C@H](O)[C@@H]1O)C1CC(CCc2nc3ccc(C(C)(C)C)cc3[nH]2)C1 (stereo partly shown)
86900 ng·h/mL

----------
- protocol text: Pharmacokinetic study, IP 100 mg/kg, whole blood concentration
- Type: in vivo, male CD1 mice
- test context: male, CD1, mouse, ip, 100 mg/kg, sampling time 2 hr, read-out: Concentration Mouse#3
- Method: Pharmacokinetic studies in CD1 mice using the compound of Example 1 (i.e. CC-006) (100 mg/kg, IP dose) were also performed.
endpoint name: concentration at 2 h (ng/mL)
Report the figure in ng/mL without appending any unit label.

Provide only the value of recorded concentration at 2 h for CC(C)N(C[C@H]1C[C@@H](n2cc(C#N)c3c(N)ncnc32)[C@H](O)[C@@H]1O)C1CC(CCc2nc3ccc(C(C)(C)C)cc3[nH]2)C1 (stereo partly shown)
16100

----------
- protocol text: Pharmacokinetic study, IP 100 mg/kg, whole blood concentration
- Format: in vivo, male CD1 mice
- test context: male, CD1, mouse, ip, 100 mg/kg, sampling time 4 hr, read-out: Concentration Mouse#3
- Procedure: Pharmacokinetic studies in CD1 mice using the compound of Example 1 (i.e. CC-006) (100 mg/kg, IP dose) were also performed.
endpoint name: concentration at 4 h (ng/mL)
Report the figure in ng/mL without appending any unit label.

Provide only the value of recorded concentration at 4 h for CC(C)N(C[C@H]1C[C@@H](n2cc(C#N)c3c(N)ncnc32)[C@H](O)[C@@H]1O)C1CC(CCc2nc3ccc(C(C)(C)C)cc3[nH]2)C1 (stereo partly shown) [Example 1]
12800

----------
- protocol text: Pharmacokinetic study, IP 100 mg/kg, whole blood concentration
- Type: in vivo, male CD1 mice
- test context: male, CD1, mouse, ip, 100 mg/kg, sampling time 0.083 hr, read-out: Concentration Mouse#2
endpoint name: concentration at 0.083 hr (ng/mL)
Report the figure in ng/mL without appending any unit label.

Provide only the value of recorded concentration at 0.083 hr for CC(C)N(C[C@H]1C[C@@H](n2cc(C#N)c3c(N)ncnc32)[C@H](O)[C@@H]1O)C1CC(CCc2nc3ccc(C(C)(C)C)cc3[nH]2)C1 (stereo partly shown)
5940

----------
- protocol text: Pharmacokinetic study, IP 100 mg/kg, whole blood concentration
- Assay type: in vivo, male CD1 mice
- test context: male, CD1, mouse, ip, 100 mg/kg, sampling time 1 hr, read-out: Concentration Mouse#2
- Protocol: Pharmacokinetic studies in CD1 mice using the compound of Example 1 (i.e. CC-006) (100 mg/kg, IP dose) were also performed.
endpoint name: concentration at 1 h (ng/mL)
Report the figure in ng/mL without appending any unit label.

Provide only the value of recorded concentration at 1 h for CC(C)N(C[C@H]1C[C@@H](n2cc(C#N)c3c(N)ncnc32)[C@H](O)[C@@H]1O)C1CC(CCc2nc3ccc(C(C)(C)C)cc3[nH]2)C1 (stereo partly shown)
15000
